Would you kindly list Kd for each of these compounds?
Biological target: FLT3 D835Y (Homo sapiens, UniProt P36888, D835Y)
Test: DiscoverX KINOMEscan active site-directed competition binding, FLT3 D835Y
Details: Table 12; no ATP
From the text: Kinase binding data were obtained for various exemplary compounds prepared according to Examples 1-8 using the DiscoverX KINOMEscan® active site-directed competition binding site-directed assay protocol described below. […] Compounds that directly or indirectly prevent kinase binding to the immobilized ligand reduce the amount of kinase captured on the solid support, which is detected using an ultra-sensitive qPCR method. […]
Write the number in nM without appending the unit.

Which measured Kd value corresponds to "COc1cn2ncc(-c3nc(N[C@H]4CNCC[C@@H]4F)c(C#N)cc3F)c2nc1C1CC1" ?
0.42

Which measured Kd value corresponds to "COc1cn2ncc(-c3nc(N[C@H]4CNCC[C@@H]4F)c(C#N)cc3F)c2nc1C(C)(C)O" ?
0.21

====

target: IRAK1 (Homo sapiens, UniProt P51617); assay: RBC HotSpot kinase inhibition assay, IRAK1; format: biochemical; details: Table 17; isolated kinase, 33P-ATP, 2 h
Sequence (P51617 whole entry): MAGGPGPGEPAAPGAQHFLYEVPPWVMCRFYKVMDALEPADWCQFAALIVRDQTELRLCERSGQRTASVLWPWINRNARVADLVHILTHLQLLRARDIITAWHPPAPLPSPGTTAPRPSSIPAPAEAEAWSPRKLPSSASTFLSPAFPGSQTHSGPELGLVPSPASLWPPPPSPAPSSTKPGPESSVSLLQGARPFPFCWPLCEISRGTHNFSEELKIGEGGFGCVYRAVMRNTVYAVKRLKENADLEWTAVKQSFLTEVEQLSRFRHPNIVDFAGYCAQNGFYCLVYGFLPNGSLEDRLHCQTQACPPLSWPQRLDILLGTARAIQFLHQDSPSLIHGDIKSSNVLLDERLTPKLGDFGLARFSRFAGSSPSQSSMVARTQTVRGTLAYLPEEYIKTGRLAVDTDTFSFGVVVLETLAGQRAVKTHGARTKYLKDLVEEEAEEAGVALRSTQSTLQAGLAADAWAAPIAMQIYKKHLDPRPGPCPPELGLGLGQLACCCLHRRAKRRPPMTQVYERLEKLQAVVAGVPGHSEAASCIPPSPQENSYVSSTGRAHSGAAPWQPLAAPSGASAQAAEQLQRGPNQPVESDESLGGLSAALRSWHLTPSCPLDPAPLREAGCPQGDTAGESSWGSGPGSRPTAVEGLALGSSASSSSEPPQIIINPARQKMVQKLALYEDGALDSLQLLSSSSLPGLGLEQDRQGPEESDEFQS
pIC50: −log10 of the molar value.
If the reported pIC50 equals or exceeds 8, assign yes (1). If not, assign no (0).

Is pIC50 for "COc1cn2ncc(-c3nc(N[C@@H]4CCCNC4)ncc3F)c2nc1C(C)(C)O" at or above 8?
yes (1)

Is pIC50 for COc1cn2ncc(-c3nc(N[C@@H]4CCCNC4)ncc3F)c2nc1C1CC1 [Compound 14a] at or above 8?
yes (1)

Is pIC50 for "COc1cn2ncc(-c3ccnc(N[C@@H]4CCCNC4)n3)c2nc1C(C)(C)O" at or above 8?
no (0)

Is pIC50 for COc1cn2ncc(-c3nc(N[C@H]4CNC[C@@H]4F)ncc3F)c2nc1C1CC1 [Compound 13a] at or above 8?
yes (1)

Is pIC50 for "COc1cn2ncc(-c3ccnc(N[C@H]4CNCC[C@@H]4F)n3)c2nc1C(C)(C)O" at or above 8?
no (0)

Is pIC50 for COc1cn2ncc(-c3nc(N[C@H]4CNCC[C@@H]4F)ncc3F)c2nc1C1CC1 [Compound 15a] at or above 8?
yes (1)

Is pIC50 for "COc1cn2ncc(-c3ccnc(N[C@H]4CNC[C@@H]4F)n3)c2nc1C(C)(C)O" at or above 8?
no (0)

Is pIC50 for "COc1cn2ncc(-c3nc(N[C@H]4CNCC[C@@H]4F)ncc3F)c2nc1C(C)(C)O" at or above 8?
yes (1)

Is pIC50 for "COc1cn2ncc(-c3ccnc(N[C@@H]4CCCNC4)n3)c2nc1C1CC1" at or above 8?
no (0)

====

Would you kindly list pKd for each of these compounds?
Target: UniProt P36888
Sequence (P36888 27-993): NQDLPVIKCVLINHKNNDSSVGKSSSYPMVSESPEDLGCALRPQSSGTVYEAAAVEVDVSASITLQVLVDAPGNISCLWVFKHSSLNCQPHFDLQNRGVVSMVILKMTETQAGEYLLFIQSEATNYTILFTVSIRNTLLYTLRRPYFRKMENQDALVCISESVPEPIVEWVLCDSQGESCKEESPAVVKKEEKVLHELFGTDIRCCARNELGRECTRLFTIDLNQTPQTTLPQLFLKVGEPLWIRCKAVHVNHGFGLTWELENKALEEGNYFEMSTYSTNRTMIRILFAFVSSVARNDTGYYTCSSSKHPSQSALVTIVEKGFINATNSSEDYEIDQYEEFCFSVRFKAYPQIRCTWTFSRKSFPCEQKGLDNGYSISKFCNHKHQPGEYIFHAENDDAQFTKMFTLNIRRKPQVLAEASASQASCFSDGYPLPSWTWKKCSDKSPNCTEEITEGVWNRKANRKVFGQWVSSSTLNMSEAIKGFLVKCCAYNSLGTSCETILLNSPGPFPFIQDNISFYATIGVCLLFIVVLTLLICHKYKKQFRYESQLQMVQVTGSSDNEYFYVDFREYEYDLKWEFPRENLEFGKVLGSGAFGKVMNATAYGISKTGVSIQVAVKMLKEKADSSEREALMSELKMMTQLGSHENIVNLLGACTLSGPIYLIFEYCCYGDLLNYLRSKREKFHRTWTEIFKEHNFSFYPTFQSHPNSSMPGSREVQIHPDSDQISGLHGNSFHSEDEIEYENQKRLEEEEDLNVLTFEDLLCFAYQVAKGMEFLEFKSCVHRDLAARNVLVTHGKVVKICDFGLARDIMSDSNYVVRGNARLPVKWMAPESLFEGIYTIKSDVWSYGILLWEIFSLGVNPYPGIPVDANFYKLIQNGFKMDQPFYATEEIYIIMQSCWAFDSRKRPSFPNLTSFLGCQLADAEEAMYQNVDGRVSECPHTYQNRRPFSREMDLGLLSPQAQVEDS
Test: DiscoverX KINOMEscan active site-directed competition binding, FLT3 Autoinh.
Conditions: Table 19; no ATP
# log scale: pKd equals minus log10 of the concentration in mol/L

Which measured pKd value corresponds to COc1cn2ncc(-c3nc(N[C@@H]4CCCNC4)ncc3F)c2nc1C1CC1 [Compound 14a] ?
8.80

Which measured pKd value corresponds to COc1cn2ncc(-c3nc(N[C@H]4CNCC[C@@H]4F)ncc3F)c2nc1C1CC1 [Compound 15a] ?
8.85

Which measured pKd value corresponds to COc1cn2ncc(-c3cncc(N[C@H]4CNCC[C@@H]4F)n3)c2nc1C1CC1 [Compound 12a] ?
8.34

Which measured pKd value corresponds to "COc1cn2ncc(-c3nc(N[C@H]4CNCC[C@@H]4F)ncc3F)c2nc1C(C)(C)O" ?
8.32

Which measured pKd value corresponds to "COc1cn2ncc(-c3ccnc(N[C@H]4CNCC[C@@H]4F)n3)c2nc1C1CC1" ?
7.92
